Give measured melting point for each item. Keep answers brief.

Exam item: Could you please provide reported melting point for CC(CCOc1c(-c2ccc(S(C)(=O)=O)cc2)cnn(-c2ccc(F)c(F)c2)c1=O)C(F)(F)F (centres unmarked) ? Thanks!
Marked response: 126 to 128 °C

Exam item: Specify melting point for `CC(C)(C)CCOc1c(-c2ccc(S(C)(=O)=O)cc2)cnn(CC(F)(F)F)c1=O` and stop.
Marked response: 83 to 85 °C

Exam item: Find the measured melting point of `CS(=O)(=O)c1ccc(-c2cnn(CC(=O)c3csc4ccccc34)c(=O)c2-c2ccc(F)cc2)cc1` and report it.
Marked response: 183 to 184 °C

Exam item: Respond only with melting point recorded for `CS(=O)(=O)c1ccc(-c2cnn(Cc3cccc([N+](=O)[O-])c3)c(=O)c2-c2ccc(F)cc2)cc1`
Marked response: 156 to 157 °C

Exam item: Return melting point (reported value) for this compound: `C=CCc1c(-c2ccc(S(C)(=O)=O)cc2)cnn(CC(F)(F)F)c1=O`
Marked response: 192 to 195 °C

Exam item: Using known records, supply melting point for CS(=O)(=O)c1ccc(-c2cnn(CC(F)(F)F)c(=O)c2NC2CCc3ccccc32)cc1 (centres unmarked)
Marked response: 155 to 158 °C

Exam item: Return the recorded melting point value; entry: `CS(=O)(=O)c1ccc(-c2cnn(Cc3c(F)c(F)c(F)c(F)c3F)c(=O)c2-c2ccc(F)cc2)cc1`
Marked response: 115 to 116 °C

Exam item: Please report melting point for the following compound: `CS(=O)(=O)c1ccc(-c2cnn(-c3cccc(Cl)c3)c(=O)c2Oc2ccc(F)cc2)cc1`
Marked response: 211 to 213 °C

====

target-system: Human Whole Platelet Cyclooxygenase-1 (Homo sapiens)
Construct: from tissue; host or cells: human blood: isolated platelets (A4) or heparinised whole blood (A9)
Sequence (P23219 24-599): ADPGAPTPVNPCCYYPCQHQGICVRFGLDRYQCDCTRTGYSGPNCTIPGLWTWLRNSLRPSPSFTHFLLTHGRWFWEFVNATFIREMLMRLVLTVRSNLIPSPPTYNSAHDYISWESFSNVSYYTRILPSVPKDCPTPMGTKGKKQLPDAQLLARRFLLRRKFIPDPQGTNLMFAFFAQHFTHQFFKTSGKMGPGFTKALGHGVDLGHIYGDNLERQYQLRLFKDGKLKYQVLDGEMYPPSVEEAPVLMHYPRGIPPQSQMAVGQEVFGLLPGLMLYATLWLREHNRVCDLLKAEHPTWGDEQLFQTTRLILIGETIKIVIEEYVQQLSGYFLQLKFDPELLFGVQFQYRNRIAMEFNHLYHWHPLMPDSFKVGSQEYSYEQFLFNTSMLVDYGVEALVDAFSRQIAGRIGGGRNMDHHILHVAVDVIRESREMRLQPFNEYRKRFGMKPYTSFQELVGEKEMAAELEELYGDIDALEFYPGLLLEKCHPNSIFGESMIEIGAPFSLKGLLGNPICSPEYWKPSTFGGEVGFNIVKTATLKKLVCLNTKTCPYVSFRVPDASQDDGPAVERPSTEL
test-name: Human Whole Platelet Cyclooxygenase-1 assay (HWPX)
Assay type: cell-based
assay-context: 0.3 μM; read-out: HWPX % Inhib. at Dose
Procedure: Blood from normal healthy volunteers is collected into tubes containing ACD (acid citrate dextrose) as the anticoagulant. This blood is centrifuged at 175×g to prepare platelet rich plasma. […] The reaction is stopped by adding cold 6 mM EDTA, the incubation mixture is centrifuged at 220×g, and the supernatants are then analyzed for thromboxane using a commercial kit from Cayman Chemical (Ann Arbor, Mich.
Everything with inhibition at 0.3 µM lower than 80% is No; everything else, including exactly 80%, is Yes.

Exam item: Could you please find out whether CC(c1ccc(F)c(F)c1)n1ncc(-c2ccc(S(N)(=O)=O)cc2)c(-c2ccc(F)cc2)c1=O (centres unmarked) [Example 148] has inhibition at 0.3 µM that meets 80% or exceeds it?
Marked response: No

Exam item: Check this compound for inhibition at 0.3 µM at or above 80%: NS(=O)(=O)c1ccc(-c2cnn(CC(F)=C(F)F)c(=O)c2-c2ccc(F)cc2)cc1 [Example 141]
Marked response: No

Exam item: Hi, just wondering whether CS(=O)(=O)c1ccc(-c2cnn(-c3cccc(Cl)c3)c(=O)c2Cc2ccccc2)cc1 [Example 367] shows inhibition at 0.3 µM of 80% or higher.
Marked response: No

Exam item: Say whether CC(c1cc(F)cc(F)c1)n1ncc(-c2ccc(S(N)(=O)=O)cc2)c(-c2ccc(F)cc2)c1=O (centres unmarked) [Example 147] shows inhibition at 0.3 µM of 80% or more.
Marked response: Yes

The origin of these recorded values is patent US20020028938A1.
